Tested on: Escherichia coli
measurement.context: Concentration 20 uM; ASSAY_TEST Inhibition of Bacterial Growth; detection method Absorption (OD600); MEDIA CAMHB; plate type 384well; NBS; CORNING #3640; time 18 hr
Description: Antibacterial activity against Escherichia coli ATCC 25922 (CO-ADD:GN_001); MIC in CAMBH media using NBS plates, by OD(600)
Results with a measured potency or affinity are listed apart.

{"molecule": "CC(COc1ccccc1)N(CCCl)Cc1ccccc1.Cl (stereo not given) [PHENOXYBENZAMINE HYDROCHLORIDE]", "Inhibition (%)": 3.59}
{"molecule": "CN1CCN2c3ncccc3Cc3ccccc3C2C1 (stereo not given)", "Inhibition (%)": -1.97}
{"molecule": "c1ccc2c3c([nH]c2c1)CNCC3", "Inhibition (%)": 3.55}
{"molecule": "CCC(COC(=O)c1cc(OC)c(OC)c(OC)c1)(c1ccccc1)N(C)C.O=C(O)/C=C\\C(=O)O (stereo not given)", "Inhibition (%)": 7.24}
{"molecule": "Br.COc1ccc2c3c1O[C@H]1C[C@@H](O)C=C[C@@]31CCN(C)C2 [GALANTAMINE HYDROBROMIDE]", "Inhibition (%)": 3.62}

---

System: Escherichia coli
measurement.context: Concentration 20 uM; ASSAY_TEST Inhibition of Bacterial Growth; detection method Absorption (OD600); MEDIA CAMHB; plate type 384well; NBS; CORNING #3640; time 18 hr
Measured potencies and affinities stand elsewhere.

{"compound": "C=C(C)[C@@H]1[C@H]2OC(=O)[C@@H]1[C@]1(O)C[C@H]3O[C@]34C(=O)O[C@H]2[C@]14C.CC(C)(O)[C@@H]1[C@H]2OC(=O)[C@@H]1[C@]1(O)C[C@H]3O[C@]34C(=O)O[C@H]2[C@]14C", "Inhibition": "5.19%"}
{"compound": "NC1=NC(=O)C(c2ccccc2)O1 (configuration not stated) [PEMOLINE]", "Inhibition": "0.76%"}
{"compound": "Cc1ccc(-c2nc3ccc(C)cn3c2CC(=O)N(C)C)cc1.Cc1ccc(-c2nc3ccc(C)cn3c2CC(=O)N(C)C)cc1.O=C(O)C(O)C(O)C(=O)O [ZOLPIDEM TARTRATE]", "Inhibition": "-2.63%"}
{"compound": "Oc1ncnc2[nH]ncc12 [ALLOPURINOL]", "Inhibition": "6.23%"}
{"compound": "CCN(C(C)=O)c1cccc(-c2ccnc3c(C#N)cnn23)c1 [ZALEPLON]", "Inhibition": "4.96%"}
{"compound": "Cc1nnc2n1-c1ccc(Cl)cc1C(c1ccccc1)=NC2 [ALPRAZOLAM]", "Inhibition": "0.08%"}
{"compound": "CN(C)CCC=C1c2ccccc2CCc2ccccc21.Cl [AMITRIPTYLINE HYDROCHLORIDE]", "Inhibition": "1.2%"}
{"compound": "C=C1C[C@@H]2[C@H](CC[C@]3(C)C(=O)CC[C@@H]23)[C@@]2(C)C=CC(=O)C=C12 [EXEMESTANE]", "Inhibition": "-6.95%"}
{"compound": "COC(=O)C[C@](O)(CCCC(C)(C)O)C(=O)O[C@@H]1C(OC)=C[C@]23CCCN2CCc2cc4c(cc2[C@H]13)OCO4 [OMACETAXINE MEPESUCCINATE]", "Inhibition": "7.87%"}
{"compound": "C[C@]12CCC(=O)C[C@@H]1CC[C@@H]1[C@@H]2CC[C@@]2(C)[C@H]1CC[C@]2(C)O [MESTANOLONE]", "Inhibition": "5.51%"}
{"compound": "COc1cc(N)c(Cl)cc1C(=O)NC1CN2CCC1CC2.Cl.O (configuration not stated) [ZACOPRIDE HYDROCHLORIDE]", "Inhibition": "7.58%"}
{"compound": "COc1ccc(C(CN(C)C)C2(O)CCCCC2)cc1.Cl (configuration not stated) [VENLAFAXINE HYDROCHLORIDE]", "Inhibition": "7.16%"}
{"compound": "CC(=O)CC(c1ccccc1)c1c([O-])c2ccccc2oc1=O.[Na+] (configuration not stated) [WARFARIN SODIUM]", "Inhibition": "-2.34%"}
{"compound": "NCCc1ccccn1", "Inhibition": "8.78%"}
{"compound": "COc1ccc(CCN)cc1OC", "Inhibition": "-3.33%"}
{"compound": "CC(C)(C)NCC(O)c1cc(O)cc(O)c1.O=S(=O)(O)O (configuration not stated)", "Inhibition": "5.21%"}
{"compound": "NC(=O)C[S+]([O-])C(c1ccccc1)c1ccccc1 (configuration not stated) [MODAFINIL]", "Inhibition": "4.2%"}

---

Inhibition for assorted compounds
System: Escherichia coli
measurement.context: Concentration 20 uM; ASSAY_TEST Inhibition of Bacterial Growth; detection method Absorption (OD600); MEDIA CAMHB; plate type 384well; NBS; CORNING #3640; time 18 hr
Entries with a potency or affinity are not part of this list.

{"compound": "Cl.O.Oc1cc2c(cc1O)[C@H]1c3ccccc3CN[C@@H]1CC2", "Inhibition [%]": 6.66}
{"compound": "C[C@H](CCC(=O)O)[C@H]1CC[C@H]2[C@@H]3[C@@H](O)C[C@@H]4C[C@H](O)CC[C@]4(C)[C@H]3CC[C@]12C [URSODIOL]", "Inhibition [%]": 2.26}
{"compound": "NS(=O)(=O)c1cc(C2(O)NC(=O)c3ccccc32)ccc1Cl (centres undefined) [CHLORTHALIDONE]", "Inhibition [%]": -0.28}
{"compound": "CN1CCN(C(=O)O[C@H]2c3nccnc3C(=O)N2c2ccc(Cl)cn2)CC1 [ESZOPICLONE]", "Inhibition [%]": -0.26}
{"compound": "CC[C@@H]1/C=C/C=C/C[C@H](C)[C@@H](O)[C@](C)(O)C(=O)[C@H](C)[C@@H](O)[C@H](C)C(=O)[C@H](C)[C@@H](O)[C@H](C)/C=C/C(=O)O[C@H]2[C@@H](C)[C@@H](CC1)O[C@@]1(CC[C@@H](C)[C@@H](C[C@H](C)O)O1)[C@@H]2C", "Inhibition [%]": 0.23}
{"compound": "CC[C@]1(O)CC[C@H]2[C@@H]3CCC4=CCCC[C@@H]4[C@H]3CC[C@@]21C [ETHYLESTRENOL]", "Inhibition [%]": 3.02}
{"compound": "Cl.Oc1ccc2c3c1OC1C(O)CC[C@@]4(O)[C@@H](C2)N(CC2CCC2)CC[C@]314 (some centres undefined)", "Inhibition [%]": -2.31}
{"compound": "Cc1cc(NS(=O)(=O)c2ccc(N)cc2)no1 [SULFAMETHOXAZOLE]", "Inhibition [%]": 28.59}
{"compound": "C[C@]12CC(C=O)=C(O)C[C@@H]1CC[C@@H]1[C@@H]2CC[C@@]2(C)[C@H]1CC[C@]2(C)O", "Inhibition [%]": 7.86}
{"compound": "COC(=O)C1=C(C)NC(C)=C(C(=O)OC)C1c1ccccc1[N+](=O)[O-] [NIFEDIPINE]", "Inhibition [%]": 3.8}
{"compound": "C#C[C@]1(OC(C)=O)CC[C@H]2[C@@H]3CCC4=CC(=O)CC[C@@H]4[C@H]3CC[C@@]21C [NORETHINDRONE ACETATE]", "Inhibition [%]": -1.23}
{"compound": "COc1cc(CNC(=O)CCCC/C=C\\C(C)C)ccc1O [ZUCAPSAICIN]", "Inhibition [%]": 0}
{"compound": "CN(C)CCOc1ccc(/C(=C(/CCCl)c2ccccc2)c2ccccc2)cc1.O=C(O)CC(O)(CC(=O)O)C(=O)O [TOREMIFENE CITRATE]", "Inhibition [%]": -1.37}
{"compound": "CCOC(=O)C1=C(COCCN)NC(C)=C(C(=O)OC)C1c1ccccc1Cl (centres undefined) [AMLODIPINE]", "Inhibition [%]": 5.81}

---

Test system: Escherichia coli
measurement.context: Concentration 20 uM; ASSAY_TEST Inhibition of Bacterial Growth; detection method Absorption (OD600); MEDIA CAMHB; plate type 384well; NBS; CORNING #3640; time 18 hr
Entries with a potency or affinity are not part of this list.
Inhibition for assorted molecules
quantity.kind: Inhibition (%)

{"mol.smiles": "CS(=O)(=O)Nc1ccc(Cc2noc(-c3ccc4[nH]cc(CCN)c4c3)n2)cc1.O.O", "quantity.kind": "Inhibition", "endpoint.result": 7.87}
{"mol.smiles": "CN/C(=N\\CCSCc1nc[nH]c1C)NC#N", "quantity.kind": "Inhibition", "endpoint.result": -4.2}
{"mol.smiles": "CCOC(=O)c1ncn2c1CN(C)C(=O)c1cc(F)ccc1-2", "quantity.kind": "Inhibition", "endpoint.result": -2.76}

---

Inhibition for assorted molecules
Test system: Staphylococcus aureus
measurement.context: Concentration 20 uM; ASSAY_TEST Inhibition of Bacterial Growth; detection method Absorption (OD600); MEDIA CAMHB; plate type 384well; NBS; CORNING #3640; time 18 hr
Description: Antibacterial activity against Staphylococcus aureus MRSA ATCC 43300 (CO-ADD:GP_020); MIC in CAMBH media, using NBS plates, by OD(600)
Potency and affinity values are given separately.

{"molecule": "Br.COc1ccc2c(c1)[C@]13CCCC[C@@H]1[C@H](C2)N(C)CC3.O [DEXTROMETHORPHAN HYDROBROMIDE]", "Inhibition, %": 17.11}
{"molecule": "COC(=O)N1CCN(C(=O)Cc2ccc(Cl)c(Cl)c2)C(CN2CCCC2)C1.O=C(O)/C=C/C(=O)O (stereo not given)", "Inhibition, %": 12.27}
{"molecule": "CN1C(=O)COc2c(C(=O)NC3CN4CCC3CC4)cc(Cl)cc21.Cl (stereo not given)", "Inhibition, %": 14.32}
{"molecule": "CN1CCC[C@H]1c1cccnc1 [NICOTINE]", "Inhibition, %": -15.48}
{"molecule": "CC(C)CC(N(C)C)C1(c2ccc(Cl)cc2)CCC1 (stereo not given) [SIBUTRAMINE]", "Inhibition, %": 0.87}
